meta.source: ChEMBL document CHEMBL1268851

# ASSAY: Antiinflammatory activity in human neutrophils assessed as inhibition of fMLP-indcued superoxide production after 5 mins
# Type: functional, cell-based
# PROTOCOL CONDITIONS: Neutrophil
MEASURED ATTRIBUTE: IC50 (µM)

Please review the entries below; each comes with its answer.
• COc1cc(O)cc(-c2ccccc2OC)c1 = 8.36
• CC(C)Cc1ccc(C(C)C(=O)O)cc1 (stereo not drawn) [IBUPROFEN] = 27.5
• COc1cc(O)cc(-c2ccccc2O)c1 = 2.04

1: COc1c(O)cc2c(oc3c(OC)ccc(OC)c32)c1OC
2: COc1c(O)cc2c(oc3cccc(OC)c32)c1OC
Prompt line: Could you determine which record has the numerically smaller IC50? Candidates: 1 and 2 Mark your answer with the label of the selected entry.
Response line: 1
(1: 7.61 µM, 2: 27.4 µM)

---

# ASSAY: Antiinflammatory activity in human neutrophils assessed as inhibition of fMLP-indcued superoxide production after 5 mins
# Assay type: functional, cell-based
# PROTOCOL CONDITIONS: Neutrophil
MEASURED ATTRIBUTE: IC50 (µM)

- COc1c(O)cc2c(oc3c(OC)cccc32)c1OC: 27.4
- COc1cc(O)cc(-c2ccccc2)c1: 34.1
